Reference source for all entries: PubChem BioAssay (NCI)

System: COLO 205 colon
Assay: NCI tumour cell line growth inhibition, 48 h; in the data active means GI50 below about 0.43 µM; inactive means the rest
Output constraint: value belongs to 1 (yes) for active, 0 (no) for inactive

Substance smiles	Experimental system	Label class
COc1cc(/C=C/C(=O)/C=C/c2cc3ccc(Cl)cc3n(Cc3ccccc3)c2=O)ccc1O	COLO 205 colon	0 (no)
COc1ccc(Cn2cc3c(c2)-c2oncc2CC3)cc1OC	COLO 205 colon	1 (yes)
O=C(COc1ccc(OCC(=O)N2C(=O)CN(c3ccccc3)C2=S)cc1)N1C(=O)CN(c2ccccc2)C1=S	COLO 205 colon	0 (no)
Nc1nnnc2nc[nH]c12	COLO 205 colon	0 (no)
O=c1c2ccccc2nc(-c2ccccc2Cl)n1-c1nnc(C(F)(F)F)s1	COLO 205 colon	0 (no)

Q: Tell me the assay call for N#Cc1ccccc1C#C/C=C\C#CC#C/C=C\C#Cc1ccccc1C#N please.
Result: 0 (no)

Q: What did this assay record as the result for Cc1ccc(NC(=O)Nc2c(Cl)cccc2Cl)cn1 ?
Result: 0 (no)

Q: Outcome? CCOC(=O)c1c(NC(=O)c2ccccc2)sc2c3c(ccc12)OCN(C)C3
Result: 0 (no)

----------
Below: a set of entries, each annotated with reported TGI.
System: CAKI-1 renal
Assay: NCI tumour cell line growth inhibition, 48 h

Compound	TGI
C[C@H](CS)C(=O)N1c2ccccc2C[C@H]1C(=O)O	> 100 µM
COc1cc(C(c2cccc3ccccc23)N2C(=O)CCC2C(=O)O)cc(OC)c1OC (stereo not given)	> 100 µM
COc1ccc(-c2nn(-c3ccc(NC(=O)c4cc(Cl)cc(Cl)c4)cc3)cc2-c2ccncc2)cc1Cl	> 100 µM
COc1ccccc1/C=C/C1=C(C)CCC(c2ccccc2OC)C1C (stereo not given)	7.69 µM
O=C(Nc1ccccc1C(F)(F)F)c1ccc(NC2=C(Cl)C(=O)N(Cc3ccccc3)C2=O)cc1	4.15 µM
COc1cc(C2C(C(=O)Nc3ccc([N+](=O)[O-])cc3)=C(C)NC(C)=C2C(=O)Nc2ccc([N+](=O)[O-])cc2)ccc1O	> 86.6 µM
C[N+]1(CCC(=O)c2ccccc2)CCC2CCC(C2)C1 (stereo not given)	> 100 µM
Cc1c(-c2ccc(O)cc2)oc(=O)c2ccc(O)cc12	> 100 µM

For COC(=O)c1cc(NC(=O)c2cc(NC(=O)Cc3c[nH]c4ccccc34)cn2C)cn1C the compound record lists TGI as > 100 µM

The compound identified as C/C(=N\n1c(O)c(C#N)cc(C#N)c1=O)c1ccncc1 registered its TGI at > 100 µM

For this compound ( O=[N+]([O-])c1ccc(C2=NOC(c3ccc(Cl)cc3)N2C23CC4CC(CC(C4)C2)C3)cc1 (stereo not given) ), measured TGI is > 100 µM

Record Oc1cc(CN2CCOCCOCCOCCOCC2)c(O)cc1CN1CCOCCOCCOCCOCC1 . Reported TGI: 38.9 µM

Entry COc1cc2c(cc1O)CN1CCC23C=C[C@@H](O)CC13 (stereo not given in full) ; TGI = > 100 µM

The recorded TGI for C#CCNC(=O)NCCCCC(NC(C)=O)C(=O)NCc1ccccc1 (stereo not given) is > 100 µM

// field: TGI; key: NC1=NC(=O)/C(=C/c2ccc3ncccc3c2)S1 ; value = > 25 µM

----------
Test system: OVCAR-5 ovarian
Test: NCI tumour cell line growth inhibition, 48 h
Parameter measured: TGI

Molecule	TGI
COC(=O)C1C(=O)O[C@@H](c2ccc(OC)c(OC)c2OC)C1C(=O)OC (mixture of isomers)	> 100 µM

The reported OVCAR-5 ovarian TGI of COc1cc(/C=C/C(=O)N2CCC=CC2=O)cc(OC)c1OC is 8.68 µM

Item: Cc1cc(C)c2c(c1)N[S@@](=O)S2 | System: OVCAR-5 ovarian | TGI: 81.9 µM

CCN(CC)CCC1(C2CCCCC2)CCC(=O)NC1=O (stereo unspecified) on OVCAR-5 ovarian gives TGI = > 100 µM

Test item COC(=O)c1cc(NC(=O)c2cc(NC(=O)Cc3c[nH]c4ccccc34)cn2C)cn1C ; OVCAR-5 ovarian; reported TGI was > 100 µM

Lab entry: OVCAR-5 ovarian assay, molecule Cc1oc(N)c(S(=O)(=O)c2cc3ccccc3n(O)c2=N)c1C , TGI = > 100 µM

----------
Tested on: ACHN renal
Assay: NCI tumour cell line growth inhibition, 48 h
Parameter measured: TGI

Some solved entries appear below for comparison.
Compound	TGI
CCN(CC)C(=S)SC1C(=O)NC(=O)NC1=O	> 100 µM
O=C(Cn1c(=O)oc2ccc(C(=O)c3ccc(F)cc3)cc21)c1ccccc1	> 100 µM
CC1(C)OCN(c2ccc(S(N)(=O)=O)cc2)Cn2c1nc1ccccc12	> 100 µM
O=CNc1ccc(S(=O)(=O)c2ccc(NC=O)cc2)cc1	> 100 µM
COc1cc(C2SCC(=O)N2c2ccc(NC(C)=O)cc2)cc(OC)c1OC (centres undefined)	> 100 µM

// assay ACHN renal, entry NC(=O)NNCc1c(-c2ccccc2)no[n+]1[O-] , TGI value = > 100 µM

Item CC(=O)[CH-]C(=O)c1ccccc1.CC(=O)[CH-]C(=O)c1ccccc1.CC(C)CCC[C@H](C)C1CCC2[C@@H]3CC=C4C[C@@H]([O-])CC[C@]4(C)C3CC[C@@]21C.CC(C)CCC[C@H](C)C1CCC2[C@@H]3CC=C4C[C@@H]([O-])CC[C@]4(C)C3CC[C@@]21C.Cl.[Ti+4] (some centres undefined) was tested on ACHN renal; the reported TGI is > 25 µM

Sample CCN(CC)c1ccc(C2Nc3ccc4ccccc4c3C3=C2C(=O)CCC3)cc1 (centres undefined) , system: ACHN renal. Its TGI is 33.6 µM

TGI for ACHN renal with input CN1CCN(c2ccc(NC(=O)c3cncnc3Nc3ccc(OCc4cccc(F)c4)c(Cl)c3)cc2)CC1 equals 3.74 µM

// TGI (ACHN renal) for CCCCCCCCCCCCCCCCCCOc1ccccc1CC(=O)OCC[N+](CC)(CC)CC = 11.3 µM

Measured on ACHN renal, O=C1C2c3[nH]c4ccccc4c3C3CCCCCC3C2C(=O)N1c1ccccc1 (centres undefined) has a documented TGI of > 91.1 µM

Given the compound O=C(N/N=C(/c1nc2ccc([N+](=O)[O-])cc2[nH]c1=O)C(O)c1ccc([N+](=O)[O-])cc1)c1ccncc1 (centres undefined) and test system ACHN renal, the measured TGI is > 100 µM

Entry COc1ccc(Cl)cc1Nc1nc(C(F)(F)F)ccc1C(=O)N/N=C/c1cccnc1 : TGI on ACHN renal = > 100 µM

With ACHN renal as the test system, Nc1cc(C(F)(F)F)c(-c2cc(N3CCOCC3)nc(N3CCOCC3)n2)cn1 showed TGI of > 100 µM

Entry COC1OC(CBr)C(OC(=O)c2ccccc2)C(OS(=O)(=O)c2ccc(C)cc2)C1Br (centres undefined) , tested on ACHN renal, has a reported TGI of > 100 µM

Result for COC(=O)c1cc(NC(=O)c2cc(NC(=O)Cc3c[nH]c4ccccc34)cn2C)cn1C , tested on ACHN renal, TGI: > 100 µM

Bench note, ACHN renal: entry O=C(/C=C1\N=C(c2ccccc2)N(c2nc3c(Cl)cc(Cl)cc3s2)C1=O)/C=C/c1ccccc1 , its TGI = > 100 µM

With ACHN renal as the test system, CCCCC(/C=C\COC1CCCCO1)=C/C(=O)OCC (centres undefined) showed TGI of > 100 µM

Let me check: CC(c1ccccc1)[C@@H](C(=O)Nc1ccc(I)cc1F)N1C(=O)N[C@H](c2ccc(OC[C@H](O)CO)cc2)C1=O (some centres undefined) , system ACHN renal, measured TGI is > 25 µM

----------
Tested on: SK-MEL-5 melanoma
Test: NCI tumour cell line growth inhibition, 48 h
Parameter measured: TGI

Example cases with answers are listed next.
Molecule	Result
O=C(N/N=C(/c1nc2ccc([N+](=O)[O-])cc2[nH]c1=O)C(O)c1ccc([N+](=O)[O-])cc1)c1ccncc1 (stereo unspecified)	> 100 µM
c1ccc(-c2n(Cc3ccc4ccccc4c3)cc[n+]2Cc2ccc3ccccc3c2)cc1	1.69 µM
CC(=O)Oc1c(OC(C)C)c(C)c(O[Si](C(C)C)(C(C)C)C(C)C)c2[nH]c3ccccc3c12	> 100 µM
COc1ccc(-n2c3c(c4cc(O)ccc42)Cc2ccccc2C3=O)cc1	> 100 µM
O=C(O)c1c(Cl)c(Cl)c(Cl)c(Cl)c1C(=O)Nc1ccc2cn[nH]c2c1	> 100 µM
O=C(Cn1c(=O)oc2ccc(C(=O)c3ccc(F)cc3)cc21)c1ccccc1	> 100 µM
CCOC(=O)c1cnc2c(ccc3[nH]cccc32)c1=O	> 100 µM
CCOC(=O)c1nc2ccccc2nc1Nc1ccc(OC)cc1	> 100 µM
O=C(O)C(O)C(O)C(O)C(O)C(=O)O (stereo unspecified)	> 100 µM
[N-]=[N+]=Nc1ccc2c(c1)Sc1ccccc1N2CCCCN1CCN(Cc2ccc(C(=O)c3ccc(CSCC(N)C(=O)O)cc3)cc2)CC1 (stereo unspecified)	34.9 µM

Per the record, NC(=O)CC1(O)C=C(Br)C(=O)C(Br)=C1 has TGI of 25.6 µM

Sample O=C(/C=C/C(Cl)(Cl)Cl)Nc1ccc(Cl)cc1 ; TGI observed: 23.5 µM

Entry CCOC(=O)C(NO)C(Sc1ccccc1)c1ccc(OC)cc1 (stereo unspecified) ; TGI = > 100 µM

Please fill in: TGI reported for CC/C(=N/O)c1ccc2[nH]c3c(C)cc([N+](=O)[O-])c(C)c3c2c1 = > 100 µM

Summary for this molecule, CC(C)[Si]1(C(C)C)OCC2OC(n3c(C(=O)c4ccccc4)cc(=O)[nH]c3=O)CC2O[Si](C(C)C)(C(C)C)O1 (stereo unspecified) : TGI is 14 µM

Item: Nc1nnc(CCC(=O)Nc2cc(Cl)ccc2Cl)n1N | TGI: > 100 µM

Recorded TGI (molecule COc1ccc(-c2[nH]nc(N)c2-c2cc(OC)c3c(c2)OCO3)cc1 ): 8.97 µM

// field: TGI; key: CN(C)C=NC1CCC(C(C)(C)C)CC1 (stereo unspecified) ; value = 31 µM

The molecule CCOC(=O)c1nc2ccccc2nc1Oc1ccc(C#N)cc1 showed TGI equal to > 100 µM

Lookup result for CC(=O)Nc1ccc(C(=O)NN2C(=O)C(Cl)C2c2cccc([N+](=O)[O-])c2)cc1 (stereo unspecified) ; measured TGI: > 100 µM

The recorded TGI for entry O=S(=O)(c1ccccc1)N1CN2CN(C1)CN(S(=O)(=O)c1ccccc1)C2 equals > 100 µM
